Please respond with reported % Inhibition (primary neuron assay) for every item in the list.
biological target: human α-Synuclein pre-formed fibrils (human, UniProt P37840 1-140); test: cell-based or functional assay
Give bare numbers, in %.

Below, each entry is followed by its recorded % Inhibition (primary neuron assay) result.
{"BINDER": "9014 (antibody, IgG1, V domains shown) VH: EVQLVESGGGLVQPKGSLKLSCAASGFTFNTYAMHWVRQAPGKGLEWVARIRSESNNFATYYADSVKDSFTISRDDSQSMLYLQMNNLKTEDTAVYYCVRGGLSPFDYWGQGTTLTVSS VL: QIVLTQSPAIMSASPGEKVTMTCSASSSVSYMHWYQQKSGTSPKRWIYDTSKLASGVPARFSGSGSGTSYSLTINSMEAEDAATYYCQQWSRNPPTFGGGTKLEIK", "OUTCOME MEASURE": "% Inhibition (primary neuron assay)", "RESULT VALUE": 81.7}
{"BINDER": "9035 (antibody, IgG2b, V domains shown) VH: EVQLVESGGGLVKPGGSLKLSCGASGFTFSSFAMSWVRQTPEKRLEWVATISNGGSYTYYPDSVQGRFTISRDNAKNTLYLRMSSLRSEDTAMYYCARRSSTRGFFDYWGHGTTLTVSS VL: QIFLTQSPAIMSASPGEKVTMTCSASSSVSYMYWYQQKPGSSPRLLIYDSSKLASGVPVQFSGSGSGTSYSLTISRMEAEDAATYYCQQWRSYPPTFGAGTKLELK", "OUTCOME MEASURE": "% Inhibition (primary neuron assay)", "RESULT VALUE": 79}
{"BINDER": "9018 (antibody, IgG2b, V domains shown) VH: EVMLVESGGGLVKPGGSLKLSCAASGFTFSSYAMSWVRQTPEKRLEWVATISTGGGYTYYPDSVKGRFTVSRDNAKNTLYLQMSSLRSEDTAMYYCARRGTSRGYFDVWGAGTTVTVSS VL: QIILTQSPAIMSASPGEKVTMTCSASSSVSYMYWYQQKPESSPRLLIYDTSNLASGVPVRFSGSGSGTSYFLTISRMEAEDAATYYCQQWKTYPPTFGGGTRLEIK", "OUTCOME MEASURE": "% Inhibition (primary neuron assay)", "RESULT VALUE": 86.5}

Hi! Can you tell me % Inhibition (primary neuron assay) for each of these binders?
1. 9096 (antibody, IgG2b, V domains shown) VH: EVQLVESGGGLVKPGGSLKLSCAASGFTFSGYAMSWVRQTPEKRLEWVATISNGGSYTYYPDSVKGRFTISRDNAKKTLYLQMSSLRSEDTAMYYCTRRAATRGYFDYWGQGTTLTVSS VL: QIVLTQSPAIMSASPGEKVTMTCSASSSVSYMYWYQQKPGSSPRLLIYDTSKLASGVPVRFSGSGSGTSYSLTISRMEAEDAATYYCQQWRSYPPTFGAGTKLELK
2. 9009 (antibody, IgG1, V domains shown) VH: EVQLVESGGGLVQPKGSLKLSCAASGFTFNTYAMHWVRQAPGKGLEWVARIRSESNNFATYYADSVKDSFTISRDDSQSMLYLQMNNLKTEDTAVYYCVRGGLSPFDYWGQGTTLTVSS VL: QIVLTQSPAIMSASPGEKVTMTCSASSSVSYMHWYQQKSGTSPKRWIYDTSKLASGVPARFSGSGSGTSYSLTINSMEAEDAATYYCQQWSRNPPTFGGGTKLEIK

Result ::
1: 85.1; 2: 81

Hi! Can you tell me % Inhibition (primary neuron assay) for each of these binders?
1. 9047 (antibody, IgG2b, V domains shown) VH: EVQLVESGGGLVKPGGSLKLSCGASGFTFSSFAMSWVRQTPEKRLEWVATISNGGSYTYYPDSVKGRFTISRDNAKNTLYLRMSSLRSEDTALYYCTRRSSTRGFFDYWGPGTTLTVSS VL: QIFLTQSPAIMSASPGEKVTMTCSASSSVTYMYWYQQNPGSSPRLLIYDSSKLASGVPVRFSGSGSGTSYSLTISRMEAEDATTYYCQQWKSYPPTFGTGTKLDLK
2. 9100 (antibody, IgG2b, V domains shown) VH: EVQLVESGGVLVKPGGSLKLSCAASGFTFSSFAMSWVRQTPEKRLEWVATISNGGSYTYYPDSVKGRFTISRDNAKNTLYLRMSSLRSEDTAMYYCVRRATTRGYFDYWGQGTTLTVSS VL: QIFLTQSPAIMSASPGEKVTMTCSASSSVSYMYWYQQKPGSSPRLLIYDSSKLASGVPVQFSGSGSGTSYSLTISRMEAEDAATYYCQQWRSYPPTFGAGTKLELK
3. 9005 (antibody, IgG1, V domains shown) VH: EVMLVESGGGLVKSGGSLKLSCAASGFTFSSYAMSWVRQTPEKRLEWVATISTGGGYTYYPDSVKGRFTISRDNAKNTLYLQMSSLRSEDTAMYYCVRRGTARGYFDVWGAGTTVTVSS VL: QIVLTQSPAIMSASPGEKVTMTCSASSSVSYMYWYQQKPESSPRLLIYDTSNLASGVPVRFSGSGSGTSYFLTISRMEAEDAATYYCQQWKTYPPTFGGGTKLEIK
4. 9021 (antibody, IgG1, V domains shown) VH: EVMMVESGGGLVKPGGSLKLSCAASGFTFSNYAMSWVRQTPEKRLEWVATISTGGGYTYYPDSMKGRFTISRDNAKNTLYLQMSSLRSEDTAMYYCARRGTARGYFDVWGAGTTVTVSS VL: QIVLTQSPAIMSASPGEKVTMTCSASSSVSYMYWYQQKPESSPRLLIYDTSNLASGVPVRFSGSGSGTSYFLTISRMEAEDAATYYCQQWKTYPPTFGGGTKLEIK
5. 9003 (antibody, IgG1, V domains shown) VH: EVQLVESGGGLVQPKGSLKLSCAASGFTFNTYAMHWVRQAPGKGLEWVARIRSESNNFATYYADSVKDSFTISRDDSQSMLYLQMNNLKTEDTAVYYCVRGGLSPFDYWGQGTTLTVSS VL: QIVLTQSPAIMSASPGEKVTMTCSASSSVSYMHWYQQKSGTSPKRWIYDTSKLASGVPARFSGSGSGTSYSLTINSMEAEDAATYYCQQWSRNPPTFGGGTKLEIK

Result ::
84.3
91.3
90.3
84.7
82
